- MEASUREMENT_PROTOCOL: Total clearance in rat
- Type: ADME, organism-based
- DETAILS: in vivo
MEASURED_ENDPOINT: clearance (mL/min/kg)
Respond with the bare value in mL/min/kg.

Query block: Give clearance for the following molecule: CO[C@@H](Cc1ccc(OCCc2nc(-c3ccccc3)oc2C)c2ccsc12)C(=O)O
Result block: 6.2

====

Record form. Attribute: EC50. Fill in for each entry.
Provide only the numeric value, understood in nM.

Query block: Under Peroxisome proliferator-activated receptor delta (Homo sapiens), report EC50 for CO[C@@H](Cc1ccc(OCCc2nc(-c3ccccc3)oc2C)c2sccc12)C(=O)O
Result block: 137

Query block: Write down the reported EC50 (system: Peroxisome proliferator-activated receptor delta (Homo sapiens)) of CCO[C@@H](Cc1ccc(OCCc2nc(-c3ccccc3)oc2C)c2ccccc12)C(=O)O
Sequence (Q03181 whole entry): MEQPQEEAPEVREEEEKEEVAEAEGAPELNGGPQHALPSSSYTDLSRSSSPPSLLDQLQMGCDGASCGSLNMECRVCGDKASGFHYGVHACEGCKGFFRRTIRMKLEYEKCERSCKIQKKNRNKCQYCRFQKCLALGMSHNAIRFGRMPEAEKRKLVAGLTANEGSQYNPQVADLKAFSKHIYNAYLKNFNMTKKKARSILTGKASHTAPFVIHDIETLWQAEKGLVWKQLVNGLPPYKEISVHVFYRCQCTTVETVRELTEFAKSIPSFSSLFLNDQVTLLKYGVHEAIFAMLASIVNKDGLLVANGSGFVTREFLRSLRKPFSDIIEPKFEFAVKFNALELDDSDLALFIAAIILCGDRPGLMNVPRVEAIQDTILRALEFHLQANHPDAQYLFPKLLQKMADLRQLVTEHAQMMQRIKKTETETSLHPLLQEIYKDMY
Result block: 169

Query block: State, for Peroxisome proliferator-activated receptor delta (Homo sapiens), measured EC50 of the molecule listed here: COc1cc(OC)cc(-c2nc(CCOc3ccc(C[C@H](OC)C(=O)O)c4sccc34)c(C)o2)c1
Result block: 678

====

I'd appreciate it if you could supply log10 IC50 values for the items below.
- TARGET_ENTITY: Peroxisome proliferator-activated receptor alpha (Homo sapiens)
- Sequence (Q07869 whole entry): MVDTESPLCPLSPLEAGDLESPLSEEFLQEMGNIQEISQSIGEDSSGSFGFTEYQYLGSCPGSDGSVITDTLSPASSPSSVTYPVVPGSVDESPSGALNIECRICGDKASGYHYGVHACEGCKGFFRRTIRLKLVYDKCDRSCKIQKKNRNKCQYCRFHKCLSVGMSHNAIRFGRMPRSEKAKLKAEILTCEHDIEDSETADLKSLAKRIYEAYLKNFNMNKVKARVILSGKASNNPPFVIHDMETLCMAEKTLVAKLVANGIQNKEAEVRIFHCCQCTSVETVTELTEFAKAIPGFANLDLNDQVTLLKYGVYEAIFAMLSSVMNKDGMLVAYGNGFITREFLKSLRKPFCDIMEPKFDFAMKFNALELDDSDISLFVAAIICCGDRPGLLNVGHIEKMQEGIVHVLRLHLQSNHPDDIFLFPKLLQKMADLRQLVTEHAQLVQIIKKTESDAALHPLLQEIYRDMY
- MEASUREMENT_PROTOCOL: biochemical
Hey, these are logged values: log10 of IC50, µM being the unit before logging.

Query block: Please indicate log10 IC50 recorded for CCO[C@@H](Cc1ccc(OCCc2nc(-c3ccc(-c4ccccc4)cc3)oc2C)c2ccsc12)C(=O)O
Result block: -0.71

Query block: Hello, please tell me recorded log10 IC50 for this one: CO[C@@H](Cc1ccc(OCCc2nc(-c3ccc(C(C)C)cc3)oc2C)c2ccsc12)C(=O)O
Result block: -1.35

Query block: Fill in reported log10 IC50 for this entry: CO[C@@H](Cc1ccc(OCCc2nc(-c3ccc(C(F)(F)F)cc3)oc2C)c2ccsc12)C(=O)O
Result block: -1.28

Query block: Give a short answer stating reported log10 IC50 for CCO[C@@H](Cc1ccc(OCCc2nc(-c3ccccc3)oc2C)c2sccc12)C(=O)O .
Result block: -0.48

Query block: Supply measured log10 IC50 of COC(Cc1ccc(OCCc2nc(-c3ccccc3C)oc2C)c2ccccc12)C(=O)O (racemic) in your reply.
Result block: -0.36

Query block: For Cc1oc(-c2ccc(-c3ccccc3)cc2)nc1CCOc1ccc(C[C@H](OCC(F)(F)F)C(=O)O)c2ccccc12 , write its log10 IC50.
Result block: -0.37

Query block: Query log10 IC50 for CC(C)(Oc1ccc(C(=O)c2ccc(Cl)cc2)cc1)C(=O)O
Result block: 2.03

Query block: Look up and state reported log10 IC50 for CCCOC(Cc1ccc(OCCc2nc(-c3ccccc3)oc2C)c2ccccc12)C(=O)O (racemic)
Result block: -1.16

Query block: Consider the compound Cc1oc(-c2ccc(C(C)C)cc2)nc1CCOc1ccc(C[C@H](OCC2CC2)C(=O)O)c2sccc12 . State its measured log10 IC50.
Result block: -1.43

Query block: Let me know recorded log10 IC50 for CO[C@@H](Cc1ccc(OCCc2nc(-c3ccccc3)oc2C)c2sccc12)C(=O)O , thanks.
Result block: -1.55

Query block: Give the value of log10 IC50 reported for the following: CC(=O)c1ccccc1N[C@@H](Cc1ccc(OCCc2nc(-c3ccccc3)oc2C)cc1)C(=O)O
Result block: -0.20

Query block: Consider the compound Cc1oc(-c2ccccc2)nc1CCOc1ccc(CC(OCC(C)C)C(=O)O)c2sccc12 (racemic) . State its measured log10 IC50.
Result block: -0.62

Query block: Output log10 IC50 of CCCCCCOC(Cc1ccc(OCCc2nc(-c3ccccc3)oc2C)c2ccsc12)C(=O)O (racemic)
Result block: -0.92

Query block: Annotate the compound CCO[C@@H](Cc1ccc(OCCc2nc(-c3ccccc3)oc2C)c2ccccc12)C(=O)O with its measured log10 IC50.
Result block: -0.70

Query block: Please indicate log10 IC50 recorded for COc1cc(OC)cc(-c2nc(CCOc3ccc(C[C@H](OC)C(=O)O)c4sccc34)c(C)o2)c1
Result block: -1.32

Query block: Kindly indicate its recorded log10 IC50. Item: CCO[C@@H](Cc1ccc(OCCc2nc(-c3ccc(C(F)(F)F)cc3)oc2C)c2ccccc12)C(=O)O
Result block: -0.04

Query block: Find the measured log10 IC50 of Cc1oc(-c2ccccc2)nc1CCOc1ccc(C[C@H](OCC(F)(F)F)C(=O)O)c2sccc12 and report it.
Result block: -1.22

Query block: Tell us which log10 IC50 value is on record for CCO[C@@H](Cc1ccc(OCCc2nc(-c3ccc(C(F)(F)F)cc3)oc2C)c2ccsc12)C(=O)O
Result block: -1.20

Query block: Give the value of log10 IC50 reported for the following: Cc1oc(-c2ccccc2)nc1CCOc1ccc(C[C@H](OCC2CC2)C(=O)O)c2sccc12
Result block: -1.68
